- assay.system: Tyk2 (Homo sapiens (Human), UniProt P29597)
- Sequence (P29597 whole entry): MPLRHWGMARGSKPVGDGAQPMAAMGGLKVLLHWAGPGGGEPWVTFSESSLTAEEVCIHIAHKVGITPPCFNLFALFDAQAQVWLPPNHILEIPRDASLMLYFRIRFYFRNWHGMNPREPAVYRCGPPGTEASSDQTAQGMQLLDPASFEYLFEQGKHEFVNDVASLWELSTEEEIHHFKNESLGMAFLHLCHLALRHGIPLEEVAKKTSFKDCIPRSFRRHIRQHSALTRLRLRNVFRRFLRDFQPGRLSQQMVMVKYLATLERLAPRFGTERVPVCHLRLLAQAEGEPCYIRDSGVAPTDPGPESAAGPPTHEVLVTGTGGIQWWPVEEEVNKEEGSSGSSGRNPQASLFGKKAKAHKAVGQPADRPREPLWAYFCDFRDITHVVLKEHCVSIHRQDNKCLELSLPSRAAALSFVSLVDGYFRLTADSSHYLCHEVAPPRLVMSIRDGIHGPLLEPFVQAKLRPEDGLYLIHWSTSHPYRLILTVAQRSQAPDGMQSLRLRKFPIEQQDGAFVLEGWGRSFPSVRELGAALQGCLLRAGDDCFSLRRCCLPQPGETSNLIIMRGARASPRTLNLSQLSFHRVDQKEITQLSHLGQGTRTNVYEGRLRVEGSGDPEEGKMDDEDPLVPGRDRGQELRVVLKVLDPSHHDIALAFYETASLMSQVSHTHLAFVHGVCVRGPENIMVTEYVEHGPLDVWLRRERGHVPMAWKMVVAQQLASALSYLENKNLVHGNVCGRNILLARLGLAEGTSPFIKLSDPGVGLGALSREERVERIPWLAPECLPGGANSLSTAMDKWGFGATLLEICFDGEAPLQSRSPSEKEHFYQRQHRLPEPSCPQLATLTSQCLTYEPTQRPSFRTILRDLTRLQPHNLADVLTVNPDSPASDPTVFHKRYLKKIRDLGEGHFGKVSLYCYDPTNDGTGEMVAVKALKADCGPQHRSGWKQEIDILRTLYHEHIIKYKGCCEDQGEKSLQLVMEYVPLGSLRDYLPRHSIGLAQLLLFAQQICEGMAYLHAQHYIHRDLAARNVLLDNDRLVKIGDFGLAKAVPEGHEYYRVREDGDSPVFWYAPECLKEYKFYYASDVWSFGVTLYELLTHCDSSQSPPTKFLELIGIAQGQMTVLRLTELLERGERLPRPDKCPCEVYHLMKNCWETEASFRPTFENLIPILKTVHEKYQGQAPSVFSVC
- test.details: Enzyme assay (Assay Example^a 1), Tyk2
- Assay type: biochemical
- measurement.setup: ATP 100 μM
Entries and their measured IC50 follow.
result.type: IC50

INSERT INTO measurements (compound, result_type, endpoint_result) VALUES
  ('N#CC1CN(C(=O)[C@H]2CC[C@H](c3nnn4cnc5[nH]ccc5c34)CC2)C1 [compound 363]', 'IC50', '> 1 µM'),
  ('N#Cc1ccc(CN2CCC(c3nnn4cnc5[nH]cc(Cl)c5c34)CC2)cc1 [compound 377]', 'IC50', '> 1 µM'),
  ('O=C([C@H]1CC[C@H](c2nnn3cnc4[nH]ccc4c23)CC1)N1CC[C@H](O)C1 [compound 358]', 'IC50', '> 1 µM');

---

Entries and their measured IC50 follow.
- assay.system: UniProt P29597
- test.details: Enzyme assay (Assay Example^a 1), Tyk2
- Format: biochemical
- measurement.setup: ATP 100 μM
result.type: IC50

INSERT INTO measurements (smiles_text, endpoint_result) VALUES
  ('CN1CCC(c2nnn3cnc4[nH]ccc4c23)CC1', '> 1 µM'),
  ('COc1ccc(CNC[C@H]2CC[C@H](c3nnn4cnc5[nH]ccc5c34)CC2)cc1', '0.0048 µM'),
  ('CCS(=O)(=O)N1CCN(C[C@H]2CC[C@H](c3nnn4cnc5[nH]ccc5c34)CC2)CC1', '> 1 µM');

---

- assay.system: JAK1 (Homo sapiens (Human), UniProt P23458)
- test.details: Enzyme assay (Assay Example^a 1), JAK1
- Assay type: biochemical
- measurement.setup: ATP 100 μM
result.type: IC50 (µM)

INSERT INTO measurements (molecule, assay_system, unit_label, endpoint_result) VALUES
  ('CC1(O)CN(C[C@H]2CC[C@H](c3nnn4cnc5[nH]ccc5c34)CC2)C1', 'JAK1 (Homo sapiens (Human), UniProt P23458)', 'µM', 0.0028),
  ('CN1CCC(c2nnn3cnc4[nH]ccc4c23)CC1', 'JAK1 (Homo sapiens (Human), UniProt P23458)', 'µM', 0.38),
  ('COc1ccc(CNC[C@H]2CC[C@H](c3nnn4cnc5[nH]ccc5c34)CC2)cc1', 'JAK1 (Homo sapiens (Human), UniProt P23458)', 'µM', 0.012),
  ('N#CCN1CCC(c2nnn3cnc4[nH]ccc4c23)CC1', 'JAK1 (Homo sapiens (Human), UniProt P23458)', 'µM', 0.0053),
  ('CN(C)C1CN(C[C@H]2CC[C@H](c3nnn4cnc5[nH]ccc5c34)CC2)C1', 'JAK1 (Homo sapiens (Human), UniProt P23458)', 'µM', 0.077),
  ('N#C/C(=C\N1CCC(c2nnn3cnc4[nH]ccc4c23)CC1)c1ccccc1', 'JAK1 (Homo sapiens (Human), UniProt P23458)', 'µM', 0.035),
  ('Clc1ccc(CN2CCC(c3nnn4cnc5[nH]ccc5c34)CC2)o1', 'JAK1 (Homo sapiens (Human), UniProt P23458)', 'µM', 0.0016),
  ('FC(F)(F)C(F)(F)CNC[C@H]1CC[C@H](c2nnn3cnc4[nH]ccc4c23)CC1', 'JAK1 (Homo sapiens (Human), UniProt P23458)', 'µM', 0.0039),
  ('O=C(C[C@H]1CC[C@H](c2nnn3cnc4[nH]ccc4c23)CC1)NCC(F)(F)F [442b]', 'JAK1 (Homo sapiens (Human), UniProt P23458)', 'µM', 0.0032),
  ('FC(F)(F)C1(NC[C@H]2CC[C@H](c3nnn4cnc5[nH]ccc5c34)CC2)CC1', 'JAK1 (Homo sapiens (Human), UniProt P23458)', 'µM', 0.0027),
  ('FC1(F)CN(C[C@H]2CC[C@H](c3nnn4cnc5[nH]ccc5c34)CC2)C1', 'JAK1 (Homo sapiens (Human), UniProt P23458)', 'µM', 0.018),
  ('Brc1ccc(CN2CCC(c3nnn4cnc5[nH]ccc5c34)CC2)s1', 'JAK1 (Homo sapiens (Human), UniProt P23458)', 'µM', 0.00079),
  ('COc1ccc(C(O)(CN[C@H]2CC[C@H](c3nnn4cnc5[nH]ccc5c34)CC2)C(F)(F)F)cn1 (stereo partly drawn) [387b]', 'JAK1 (Homo sapiens (Human), UniProt P23458)', 'µM', 0.0019),
  ('O=C1CN(C[C@H]2CC[C@H](c3nnn4cnc5[nH]ccc5c34)CC2)CCN1', 'JAK1 (Homo sapiens (Human), UniProt P23458)', 'µM', 0.024),
  ('c1cc2c(ncn3nnc(C4CCN(Cc5cocn5)CC4)c23)[nH]1', 'JAK1 (Homo sapiens (Human), UniProt P23458)', 'µM', 0.039),
  ('O=S(=O)(C[C@H]1CC[C@H](c2nnn3cnc4[nH]ccc4c23)CC1)c1ccc(F)cc1', 'JAK1 (Homo sapiens (Human), UniProt P23458)', 'µM', 0.0054),
  ('c1cc(CN2CCC(c3nnn4cnc5[nH]ccc5c34)CC2)ccn1', 'JAK1 (Homo sapiens (Human), UniProt P23458)', 'µM', 0.0081),
  ('O[C@H]1Cc2ccccc2[C@H]1NC1CCC(c2nnn3cnc4[nH]ccc4c23)CC1 (mixture of isomers)', 'JAK1 (Homo sapiens (Human), UniProt P23458)', 'µM', 0.004),
  ('N#Cc1ccc(CN2CCC(c3nnn4cnc5[nH]cc(Cl)c5c34)CC2)cc1', 'JAK1 (Homo sapiens (Human), UniProt P23458)', 'µM', 0.0045),
  ('CCNC[C@H]1CC[C@H](c2nnn3cnc4[nH]ccc4c23)CC1', 'JAK1 (Homo sapiens (Human), UniProt P23458)', 'µM', 0.0074),
  ('O=C(CN[C@H]1CC[C@@H](c2nnn3cnc4[nH]ccc4c23)CC1)NCC(F)(F)F [384a]', 'JAK1 (Homo sapiens (Human), UniProt P23458)', 'µM', 0.087),
  ('FC(F)Oc1ccc(CN2CCC(c3nnn4cnc5[nH]ccc5c34)CC2)cc1', 'JAK1 (Homo sapiens (Human), UniProt P23458)', 'µM', 0.013),
  ('N#Cc1ccc(CCNC(=O)[C@H]2CC[C@H](c3nnn4cnc5[nH]ccc5c34)CC2)cc1', 'JAK1 (Homo sapiens (Human), UniProt P23458)', 'µM', 0.0074),
  ('OCCN(C[C@H]1CC[C@H](c2nnn3cnc4[nH]ccc4c23)CC1)C1CCCCC1', 'JAK1 (Homo sapiens (Human), UniProt P23458)', 'µM', 0.015),
  ('OCCN1CCN(C[C@H]2CC[C@H](c3nnn4cnc5[nH]ccc5c34)CC2)CC1', 'JAK1 (Homo sapiens (Human), UniProt P23458)', 'µM', 0.01),
  ('Clc1ccc(CN2CCC(c3nnn4cnc5[nH]ccc5c34)CC2)cn1', 'JAK1 (Homo sapiens (Human), UniProt P23458)', 'µM', 0.0026),
  ('O=C(NCC(F)(F)F)[C@H]1CC[C@H](c2nnn3cnc4[nH]ccc4c23)CC1', 'JAK1 (Homo sapiens (Human), UniProt P23458)', 'µM', 0.0018);

---

- assay.system: JAK1 (Homo sapiens (Human))
- test.details: JAK1 enzyme assay (Assay Example^b 1)
- measurement.setup: IC50 (μM) JAK1, ATP 100 μM
Criterion: IC50 strictly less than 0.003 µM. Met: Condition met. Not met: Condition not met.

INSERT INTO assay_data (compound, assay_system, assigned_category) VALUES
  ('O=c1[nH]c(=O)n(C2CCN(CCN3CCOCC3)CC2)c2c1cnc1[nH]ccc12', 'JAK1 (Homo sapiens (Human))', 'Condition not met'),
  ('CN(CC(F)(F)F)C[C@H]1CC[C@H](n2c(=O)[nH]c(=O)c3cnc4[nH]ccc4c32)CC1 [Synthetic Example^b 136]', 'JAK1 (Homo sapiens (Human))', 'Condition not met'),
  ('N#CCn1c(=O)c2cnc3[nH]ccc3c2n(C2CCCCC2)c1=O [Synthetic Example^b 137]', 'JAK1 (Homo sapiens (Human))', 'Condition not met'),
  ('O=c1ccn(C2C3CC4CC2CC(O)(C4)C3)c2c1cnc1[nH]ccc12 (centres unmarked) [compound 107]', 'JAK1 (Homo sapiens (Human))', 'Condition not met'),
  ('O=c1[nH]c(=O)n([C@H]2CC[C@H](CN3CC[C@@H](O)C3)CC2)c2c1cnc1[nH]ccc12', 'JAK1 (Homo sapiens (Human))', 'Condition met');

---

- assay.system: JAK1 (Homo sapiens (Human), UniProt P23458)
- test.details: Enzyme assay (Assay Example^a 1), JAK1
- Assay type: biochemical
- measurement.setup: ATP 100 μM
result.type: IC50 (µM)

INSERT INTO measurements (compound, result_type, unit_label, endpoint_result) VALUES
  ('N#Cc1ccc(CCN2CCC(c3nnn4cnc5[nH]ccc5c34)CC2)cc1 [compound 375]', 'IC50', 'µM', 0.047),
  ('O=C1COc2ccc(NC[C@H]3CC[C@H](c4nnn5cnc6[nH]ccc6c45)CC3)cc2N1 [compound 274]', 'IC50', 'µM', 0.0035),
  ('NC[C@H]1CC[C@H](c2nnn3cnc4[nH]ccc4c23)CC1 [compound 371]', 'IC50', 'µM', 0.0033),
  ('Cc1c(CN2CCC(c3nnn4cnc5[nH]ccc5c34)CC2)c(Cl)nn1CC(F)(F)F [compound 374]', 'IC50', 'µM', 0.038);
